- System: MDA-MB-435 melanoma
- assay_info: NCI-60 one-dose screen, 48 h
- applied_conditions: 10 µM unless noted
Compounds without any hit were thinned out: in the full panel of roughly 83,000, 20% have a hit. The source made the active and inactive calls. How the source made its calls: active means growth percent below 10; inactive means the rest.
Form entry, call: pick from 1.0 (active), 0.0 (inactive)

Take a look at these entries with their results.
1) CCCCC/C(C=C(C#N)C#N)=C/c1ccccc1 ... 0.0
2) CCCCN(CCCC)CCCn1c(-c2ccccc2)ccc1-c1ccccc1 ... 0.0
3) O=C(/C=C/c1cccc([N+](=O)[O-])c1)c1ccc(O)c(CN2CCN(c3cc4c(cc3F)c(=O)c(C(=O)O)cn4C3CC3)CC2)c1 ... 0.0
4) Cn1cc(-c2nonc2-c2cn(C)c3ccc(F)cc23)c2cc(F)ccc21 ... 1.0
5) O=C1Nc2c(ccc(Cl)c2Cl)/C1=C\c1ccc(C(F)(F)F)cc1 ... 0.0

// return assay outcome for "CC(=O)c1cc2c(N)c(C(=O)Nc3cccc4ccccc34)sc2nc1C"
1.0

For "COc1ccc(Nc2nc(SC)nc(-c3cccc([N+](=O)[O-])c3)c2C#N)cc1" , which call appears in the assay record?
0.0

Could you check what this test reported for "COc1cc(C=Nc2oc(-c3ccccc3)c(-c3ccccc3)c2C#N)cc(CN2CCCCC2)c1O" ?
0.0

How did this test come out for "N=C(N)c1ccc(-c2ccc(-c3ccc4ccccc4c3)s2)s1" ?
0.0

What is the recorded call for this compound in the test? CCc1nc(N)nc(N)c1C#CC(C)c1cc(-c2ccnc(C)c2)c2oc(C)nc2c1 (configuration not stated)
0.0

Test call for this compound, please: "Cc1nc(/N=C(\N)NC(=O)Nc2cccc([N+](=O)[O-])c2)sc1C"
1.0

Which outcome did this test record for the compound "COc1ccc(C(=S)N2CCN(c3cccc(Cl)c3)CC2)cc1" ?
0.0

----------
- Tested on: U251 CNS
- assay_info: NCI-60 one-dose screen, 48 h
- applied_conditions: 10 µM unless noted
This is part of a sample that, as a whole, favours compounds with a hit. Of some 83,000 tested, about 20% had one in any assay. Activity calls are given as the source filed them. How the source made its calls: active means growth percent below 10; inactive means the rest.
// allowed return values: TRUE for active, FALSE for inactive

Per the records of this test, what outcome belongs to c1csc(C2=NN3C(C2)c2ccccc2OC3c2ccncc2)c1 (stereo not given) ?
FALSE

Outcome logged for "Nc1ccc(-c2cc3c(NCc4ccccc4)ncnc3s2)cc1" in this assay:
FALSE

What was the test verdict on "CN(C)CCCNc1c2ccccc2nc2ccccc12" ?
FALSE

Recorded call for "COc1ccc(S(=O)(=O)N2CCCCCC2)cc1NC(=O)c1[nH]c(C)c2c1CCCCC2=O" ?
FALSE

Recorded call for "O=C(COc1cccc(/C=C2\COc3ccc(Cl)cc3C2=O)c1)c1ccc(Cl)cc1" ?
FALSE

Please state the recorded outcome for this molecule: "O=C1c2ccccc2C(=O)c2c1ccc1[nH]c(-c3cccs3)nc21"
FALSE

Recorded test call requested for "COc1ccc(Nc2cc(C)nc(N3CCN(c4ccnc5cc(Cl)ccc45)CC3)n2)cc1"
FALSE

Hey, what did the test say about "CC(=O)c1cc2c(N)c(C(=O)Nc3cccc(F)c3C)sc2nc1C" ?
FALSE

Per the assay record, what outcome was assigned to "CCn1c(Cc2ccccc2Nc2c(Cl)cccc2Cl)nnc1SCC(=O)NN1C(=O)/C(=C/c2cc(OC)c(O)c(OC)c2)SC1=S" ?
FALSE

Give the logged outcome of this assay for the following molecule: "O=Nc1c(O)c(Cl)cc2ccccc12"
FALSE

----------
- System: HCC-2998 colon
- assay_info: NCI-60 one-dose screen, 48 h
- applied_conditions: 10 µM unless noted
About 83,000 compounds went through this panel and 20% of them were active in at least one assay; those are over-represented in the sample as a whole. The source made the active and inactive calls. The calls were made as follows: active = growth percent below 10; inactive = the rest.
The reply should be one of these categories: 1.0 (active), 0.0 (inactive)

Each compound tested received a call. Report the one for COc1cccc(C2=NN3C(C2)c2cc(Br)cc(OC)c2OC32CCN(Cc3ccccc3)CC2)c1 (configuration not stated) .
0.0

State the result this test recorded for "CSc1ccc(-c2ccccc(=O)c2O)cc1" .
0.0

Answer briefly: the call reported for "COc1nc2c(c(=O)n1C)CN(Cc1ccccc1)C=N2" in this assay.
0.0

Recorded test outcome, item "N#CN1CCC[C@H]1C(=O)N1CCc2c(-c3[nH]nc4ncccc34)cccc21"
1.0

What was the test verdict on "O=c1ccccc(-c2ccc(Br)cc2)c1O" ?
0.0

Status in this test for CON1C(=O)CC[C@]2(C)[C@H]3CC[C@@H]4C([C@@]5(C)CCC(=O)O5)CC[C@@]4(C)[C@]3(C)CC[C@H]2C1(C)C (some centres not stated) ?
0.0

Give the logged outcome of this assay for the following compound: "O=C(N(c1ccccc1)c1ccccc1)n1ccc2nc(Cl)nc(Cl)c21"
0.0

// outcome(item) with item = "COc1cc(-c2nc3cc(Cl)c(Cl)cc3[nH]2)ccc1OCC(=O)N=Nc1c(O)[nH]c2ccccc12"
1.0

Which outcome did this test record for the compound "O=Nc1c(O)c(Cl)cc2ccccc12" ?
0.0

# outcome recorded in this test, key = "COc1cccc(-c2nn(C(C)(C)C)cc2-c2ccnc(NCCCNS(=O)(=O)c3cccc4ccccc34)c2)c1"
0.0

In this assay, the call recorded for "O=C1c2ccccc2C(=O)c2c1ccc1[nH]c(-c3cccs3)nc21" was what?
0.0

Kindly provide the recorded test outcome for the following compound: "CCCCCC(=O)Oc1ccc(/C(=C(\C)c2ccc(OC)cc2)c2ccc(OCCN3CCCCC3)cc2)cc1"
0.0

Please state the recorded outcome for this compound: "O=C(COc1cccc(/C=C2\COc3ccccc3C2=O)c1)Nc1nccs1"
1.0

What call does the record list for "OCCNc1nccc(N2CCN(c3ccnc4cc(Cl)ccc34)CC2)n1" ?
0.0

State the result this test recorded for "COc1ccc(-n2nc(C)c3c(Nc4ccc(NC(=O)Nc5ccc(Cl)c(C(F)(F)F)c5)cc4)ncnc32)cc1" .
0.0

Would you mind telling me which call this test gave "COc1ccc(/C=C/C(=O)c2cc(O)ccc2O)cc1" ?
0.0

Could you please tell me the result logged for "CC(=O)c1cc2c(N)c(C(=O)Nc3cccc4ccccc34)sc2nc1C" in this assay?
0.0

Could you please tell me the result logged for "COc1ccc(NC(=O)c2ccc(/C=C/C(=O)c3ncc[nH]3)cc2)cc1" in this assay?
0.0

Outcome logged for "c1ccc(CCNc2ncnc3[nH]ncc23)cc1" in this assay:
0.0

Recorded test call requested for O=C1Nc2ccc(Br)cc2C12Oc1ccccc1C1CC(c3ccc(F)cc3)=NN12 (configuration not stated)
0.0

Per the records of this test, what outcome belongs to "COc1cc(-c2nn(-c3ccc(C(=O)O)cc3)cc2C(=O)O)ccc1O" ?
0.0

# lookup: test call for "C=C1c2nc3ccccc3n2C=C(c2cccc(Cl)c2)N1Cc1ccc(OC)cc1"
0.0

In this assay, the call recorded for "COc1ccc(N=Nc2nccs2)c(O)c1" was what?
0.0

Hello, I am checking results. What call was entered for "CCCSc1ccc2nc(NC(=O)OC)[nH]c2c1" ?
1.0

----------
- System: HOP-92 NSCLC
- assay_info: NCI-60 one-dose screen, 48 h (100 = growth as untreated, 0 = no growth, -100 = all killed)
- applied_conditions: 10 µM unless noted
The panel holds about 83,000 compounds, 20% with a hit somewhere; the sample as a whole holds those more often. Active and inactive are the calls of the source. The calls were made as follows: active = growth percent below 10; inactive = the rest.
endpoint_label: growth

Answered examples (4):
1. O=C1/C(=C/c2ccc(Cl)cc2)SC(=S)N1CCc1ccc(O)cc1 ... 73.7% (inactive)
2. O=C(Oc1cccnc1)c1ccsc1Nc1ccnc(C(F)(F)F)c1 ... 44.6% (inactive)
3. O=C1/C(=C/c2ccccc2O)N=C2SCCCN12 ... 80.9% (inactive)
4. CON1C(=O)CC[C@]2(C)[C@H]3CC[C@@H]4C([C@@]5(C)CCC(=O)O5)CC[C@@]4(C)[C@]3(C)CC[C@H]2C1(C)C (stereo not given in full) ... 95.3% (inactive)

API: the following record is the query input.
Entry "CCC#CC[C@H](O)C/C=C1/C(=O)C=C[C@@H]1C/C=C\CCCC(=O)OC" needs its growth filled in; supply it.
35.8% (inactive)

----------
- Tested on: SN12C renal
- assay_info: NCI-60 one-dose screen, 48 h
- applied_conditions: 10 µM unless noted
About 83,000 compounds went through this panel and 20% of them were active in at least one assay; those are over-represented in the sample as a whole. Activity calls are given as the source filed them. How the source made its calls: active means growth percent below 10; inactive means the rest.
// allowed return values: TRUE = active, FALSE = inactive

1. COc1cc(/C=C/C(=O)c2cccnc2Nc2ccc(F)cc2)cc(OC)c1OC ... FALSE

Just curious, what result did "Fc1ccc2[nH]cc(SSc3c[nH]c4ccc(F)cc34)c2c1" get here?
FALSE

Name the outcome recorded for "COc1cc(-c2nn(-c3ccc(C(=O)O)cc3)cc2C(=O)O)ccc1O" in the assay.
FALSE

Dear all, I need the recorded test outcome for "Cc1nn(-c2cc(=O)[nH]c3ccccc23)c(N)c1C#N" , thank you.
FALSE

# fetch the recorded call for Cc1cc(N2CCSCC2)nc(NC2CCCC(Nc3ccnc4cc(Cl)ccc34)C2)n1 (stereo not given) here
TRUE

Dear colleague, could you share the recorded outcome for "Cn1ncc2c(=O)nc3c(-c4ccccc4)n[nH]n3c21" when you have a moment?
FALSE

Outcome? "O=C1/C(=C/c2ccc3c(c2)OCO3)SC(=S)N1CCc1ccc(O)cc1"
FALSE

Record lookup: outcome of this test for CC1=C(O)C(=O)C(C(C#N)(C#N)C(C#N)C#N)C1 (stereo not given) ?
FALSE

Dear colleague, could you share the recorded outcome for "O=C(/C=C/c1cccc(Cl)c1)c1ccc(O)c(CN2CCN(c3cc4c(cc3F)c(=O)c(C(=O)O)cn4C3CC3)CC2)c1" when you have a moment?
FALSE

// outcome(item) with item = "CCn1c(Cc2ccccc2Nc2c(Cl)cccc2Cl)nnc1SCC(=O)NN1C(=O)/C(=C/c2cc(OC)c(O)c(OC)c2)SC1=S"
FALSE

Test call, this compound: "CN(C)[C@@H]1C(=O)C(C(=O)NCc2nc3[nH]cnc(=S)c3[nH]2)=C(O)[C@@]2(O)C(=O)C3=C(O)c4c(O)cccc4[C@@](C)(O)[C@H]3C[C@@H]12"
FALSE

Fill in: this test's call for "COc1cc2c(cc1-c1c(C)noc1C)ncc1nc(C3CCCCC3)n([C@H](C)COC(F)F)c12" is ___
FALSE

Which outcome did this test record for the compound "CCCOc1cc2ccccc2cc1C(=O)Nc1nc(NC)c2c(ccc3nccc32)[nH]1" ?
TRUE
